System: B16F10 mouse melanoma cell line
Test: MTT assay, cancer cells B16F10
Type: cell-based
Settings: 48 hours, H16F10
Please assign Not satisfied whenever Cytotoxicity, B16F10 cells is at or above 300 µM, and Satisfied whenever it is below.

Ask | Dear colleague, could you confirm whether Cytotoxicity, B16F10 cells of `CC(=O)/C=C/c1ccc(O)c(F)c1` falls below 300 µM? Thanks.
Reply | Not satisfied

Ask | # TODO verify Cytotoxicity, B16F10 cells < 300 µM strictly for this compound: `CC(=O)/C=C/c1ccc(F)c(O)c1`
Reply | Satisfied

Ask | Please state whether Cytotoxicity, B16F10 cells is below 300 µM for `COc1cc(/C=C/C(C)=O)ccc1O`
Reply | Not satisfied

Ask | Identify whether the compound `COc1ccc(/C=C/C(C)=O)cc1O` records Cytotoxicity, B16F10 cells below 300 µM.
Reply | Not satisfied

Ask | Please check: Cytotoxicity, B16F10 cells for CC(=O)/C=C/c1ccc(O)c(O)c1 [Osmundacetone, reference compound] , strictly under 300 µM or not?
Reply | Satisfied

Ask | Just wondering, is Cytotoxicity, B16F10 cells of `Cc1ccc(/C=C/C(N)=O)cc1O` below 300 µM?
Reply | Not satisfied

* * *

Tested on: NIH3T3 mouse fibroblast line
Experiment: MTT assay, normal cells NIH3T3
Type: cell-based
Conditions: mouse, 48 h
propertyLabel: LD50 Normal cells NTH3T3

Lab note: CC(=O)C=Cc1ccc(O)cc1 [4-Hydroxybenzalacetone, reference compound] gave LD50 Normal cells NTH3T3 of 201 ± 10 µM

Please fill in: LD50 Normal cells NTH3T3 reported for `CC(=O)/C=C/c1ccc(F)c(O)c1` = >5000 µM

Record `Cc1ccc(/C=C/C(N)=O)cc1O` , field LD50 Normal cells NTH3T3: >5000 µM

The compound `NC(=O)/C=C/c1ccc(F)c(O)c1` showed LD50 Normal cells NTH3T3 equal to >5000 µM

The recorded LD50 Normal cells NTH3T3 for entry `COc1ccc(/C=C/C(C)=O)cc1O` equals >5000 µM

The reported LD50 Normal cells NTH3T3 of the compound `CC(=O)/C=C/c1ccc(C)c(O)c1` was 688 ± 12 µM

According to the records, this compound `CC(=O)/C=C/c1ccc(O)c(F)c1` displays LD50 Normal cells NTH3T3 of >5000 µM

The recorded LD50 Normal cells NTH3T3 for entry `COc1cc(/C=C/C(C)=O)ccc1O` equals >5000 µM

* * *

Test system: osteoblasts (mouse MC3T3-E1)
Experiment: ALP (Alkaline phosphatase) assay, osteoblast activity
Assay type: cell-based
Conditions: 50 μM, MC3T3-E1, 14 days, percentage against control
Task for the reader: assign each of the following compounds its reported % Activation of ALP activity.
# value in %; strip the unit string

% Activation of ALP activity reading for `CC(=O)/C=C/c1ccc(O)c(F)c1` : 100

Given item CC(=O)/C=C/c1ccc(O)c(O)c1 [Osmundacetone, reference compound] , the value recorded as its % Activation of ALP activity is 279

Lab note: `COc1cc(/C=C/C(C)=O)ccc1O` gave % Activation of ALP activity of 422

Entry `COc1ccc(/C=C/C(C)=O)cc1O` — recorded % Activation of ALP activity = 175

* * *

System: osteoblasts (mouse MC3T3-E1)
Assay: ALP (Alkaline phosphatase) assay, osteoblast activity
Type: cell-based
Conditions: 10 μM, MC3T3-E1, 14 days, percentage against control
propertyLabel: % Activation of ALP activity (%)
Field format: number, assumed %, no unit text.

Per the records, this molecule ( `CC(=O)/C=C/c1ccc(O)c(F)c1` ) has % Activation of ALP activity equal to 102

Given item `COc1ccc(/C=C/C(C)=O)cc1O` , the value recorded as its % Activation of ALP activity is 103

Form: molecule = `COc1cc(/C=C/C(C)=O)ccc1O` ; % Activation of ALP activity = 113

Note to self: % Activation of ALP activity recorded for CC(=O)/C=C/c1ccc(O)c(O)c1 [Osmundacetone, reference compound] was 115

* * *

System: RAW264.7 rat macrophage cell line
Experiment: MTT assay, normal cells RAW264.7
Assay type: cell-based
Conditions: rat, 48 h
Task for the reader: assign each of the following molecules its reported LD50 Normal cells RAW264.7.
Report only the number, with the unit µM understood.

Form: molecule = `CC(=O)/C=C/c1ccc(C)c(O)c1` ; LD50 Normal cells RAW264.7 = 395

LD50 Normal cells RAW264.7 in this record for `COc1cc(/C=C/C(C)=O)ccc1O` : 399

The recorded LD50 Normal cells RAW264.7 for CC(=O)C=Cc1ccc(O)cc1 [4-Hydroxybenzalacetone, reference compound] is 294

LD50 Normal cells RAW264.7 reported for this molecule `COc1ccc(/C=C/C(C)=O)cc1O` : 261

What the record says about `CC(=O)/C=C/c1ccc(F)c(O)c1` : LD50 Normal cells RAW264.7 is 503

LD50 Normal cells RAW264.7 measured on `CC(=O)/C=C/c1ccc(O)c(F)c1` = 1110

* * *

Test system: T24 human bladder cancer cell line
Test: MTT assay, cancer cells T24
Format: cell-based
Conditions: MTT assay, 48 hours, T24
propertyLabel: LD63 Cancer cell T24 (µM)
Could you give me the number in µM? Just the number is fine.

# LD63 Cancer cell T24 (compound: `CC(=O)/C=C/c1ccc(O)c(F)c1` ) is 3610

Just so you know, measured LD63 Cancer cell T24 for CC(=O)/C=C/c1ccc(O)c(O)c1 [Osmundacetone, reference compound] came out at 2000

Looking up `NC(=O)/C=C/c1ccc(F)c(O)c1` , I see its LD63 Cancer cell T24 listed as 203

For record `Cc1ccc(/C=C/C(N)=O)cc1O` the listed LD63 Cancer cell T24 is 1040

Entry under test: `CC(=O)/C=C/c1ccc(C)c(O)c1` . Its LD63 Cancer cell T24 was 1120

* * *

System: T24 human bladder cancer cell line
Experiment: MTT assay, cancer cells T24
Assay type: cell-based
Conditions: MTT assay, 48 hours, T24
Record form. Attribute: LD63 Cancer cell T24. Fill in for each entry.

get_value(item= `COc1cc(/C=C/C(C)=O)ccc1O` , readout=LD63 Cancer cell T24) returns >5000 µM

The molecule listed as `COc1ccc(/C=C/C(C)=O)cc1O` shows LD63 Cancer cell T24 equal to >5000 µM

// `CC(=O)/C=C/c1ccc(F)c(O)c1` : LD63 Cancer cell T24 value = >5,000 μM
